# Assayed target: T1, human angiopoietin-2 protein (human, UniProt O15123 19-496)
# T1 construct: also called Ang-2; Ang2
# T1 sequence (looked up): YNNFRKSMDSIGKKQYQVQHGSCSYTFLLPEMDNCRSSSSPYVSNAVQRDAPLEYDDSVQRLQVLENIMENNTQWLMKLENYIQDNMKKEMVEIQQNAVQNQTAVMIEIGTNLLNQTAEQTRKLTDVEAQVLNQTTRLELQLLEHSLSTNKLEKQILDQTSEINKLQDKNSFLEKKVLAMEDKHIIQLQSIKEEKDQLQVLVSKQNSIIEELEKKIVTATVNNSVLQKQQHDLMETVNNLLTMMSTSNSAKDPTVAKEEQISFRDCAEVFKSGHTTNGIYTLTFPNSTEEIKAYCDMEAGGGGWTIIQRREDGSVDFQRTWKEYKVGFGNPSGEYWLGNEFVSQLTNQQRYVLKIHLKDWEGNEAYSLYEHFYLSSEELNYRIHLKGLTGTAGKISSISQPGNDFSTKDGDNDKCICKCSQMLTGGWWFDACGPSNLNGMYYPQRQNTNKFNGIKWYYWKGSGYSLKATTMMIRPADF
# Procedure summary: competitive ELISA: Tie-2-Fc binding to coated Ang-2; T
pIC50: −log10 of the molar value. Where no end group is shown, it is not given here. [ ]: non-standard residue; d: D form. Phe(4-NO2) = N[C@@H](Cc1ccc([N+](=O)[O-])cc1)C(=O)O; Hyp = O=C(O)[C@@H]1C[C@@H](O)CN1; 0P linker = not defined here; ThA = not defined here
Please note: TRUE applies when pIC50 is 7 or greater, and FALSE applies otherwise.

Use the examples below as a reference point.
QXYQPLDELDXTLYDQFMLQQG (N-terminal acyl cap; C-terminal amino cap; Kac 2; 0P linker on Dab 11, also called 4054 T) [Compound 4054, peptide plus linker (T)] | FALSE
QXYQPLDEIDKTLYDQFMLQQG (N-terminal acyl cap; C-terminal amino cap; Kac 2; 0P linker on K11, also called 4037 T) [Compound 4037, peptide plus linker (T)] | FALSE
XQXYQPLDELDKTLYDQFMLQQG (DCB at N-terminus; C-terminal amino cap; Kac 2; 0P linker on K11, also called 4049 T) [Compound 4049, peptide plus linker (T)] | TRUE
QXYQXLDELDKTLYDQFMLQQG (not fully specified; N-terminal acyl cap; C-terminal amino cap; Kac 2; D(HP) 5; 0P linker on K11, also called 4034 T) [Compound 4034, peptide plus linker (T)] | FALSE
QXYQPLDELDKTLFDQFMLQQG (N-terminal acyl cap; C-terminal amino cap; Kac 2; 0P linker on K11, also called 4044 T) [Compound 4044, peptide plus linker (T)] | TRUE
QXYQPLDELDKTXYDQFMLQQG (N-terminal acyl cap; C-terminal amino cap; Kac 2; 0P linker on K11; HL 13, also called 4042 T) [Compound 4042, peptide plus linker (T)] | FALSE

Would you say QK(Ac)YQ[Hyp]LDE[ThA]DK(0P linker)TL[Phe(4-NO2)]DQFMLQQG-NH2 (not fully specified; reading uncertain; also: N-terminal acyl cap, acyl not given here, also called 4045 T) [Compound 4045, peptide plus linker (T)] shows pIC50 at minimum 7?
TRUE

Would you say QRYQPLDELDKTLYDQFMLQQG-NH2 (not fully specified (residue 11, N-terminus); printed as QRY QPL DEL DK(0P)T LYD QFM LQQ G; also: N-terminal acyl cap, also called 4059 T) [Compound 4059, peptide plus linker (T)] shows pIC50 at minimum 7?
FALSE

Data credit: patent US20120321591A1
